- Test system: P. aeruginosa
- Assay name: Minimal inhibitory concentration (MIC), modified CLSI broth microdilution in CAA or CAA/HuS
- Assay type: cell-based, Pseudomonas aeruginosa
- Condition: CAA supplemented with 25% human serum
Measurement type: log10 MIC value in CAA/HuS (log10 of the value in µg/mL)

- Molecule: "GN92: Modified GN4, N-terminal peptide KFFKFFKFFK with linker, SEQ ID NO: 7 (protein) KFFKFFKFFKAGAGAGAGAGAGAGAGASMRTSQRGIDLIKSFEGLRLSAYQDSVGVWTIGYGTTRGVTRYMTITVEQAERMLSNDIQRFEPELDRLAKVPLNQNQWDALMSFVYNLGAANLASSTLLKLLNKGDYQGAADQFPRWVNAGGKRLDGLVKRRAAERALFLEPLS"
  Measured number: 0.60
- Molecule: "GN3: Native lysin, WP_012273008.1/Lysozyme, SEQ ID NO: 2 (protein, listed as Pseudomonas putida) MRTSQRGLSLIKSFEGLRLQAYQDSVGVWTIGYGTTRGVKAGMKISKDQAERMLLNDVQRFEPEVERLIKVPLNQDQWDALMSFTYNLGAANLESSTLRRLLNAGNYAAAAEQFPRWNKAGGQVLAGLTRRRAAERELFLGAA"
  Measured number: 1.20
- Molecule: "GN121: Modified GN37, C-terminal peptide RKKTRKRLKKIGKVLKWI, SEQ ID NO: 13 (protein) MTYTLSKRSLDNLKGVHPDLVAVVHRAIQLTPVDFAVIEGLRSVSRQKELVAAGASKTMNSRHLTGHAVDLAAYVNGIRWDWPLYDAIAVAVKAAAKELGVAIVWGGDWTTFKDGPHFELDRSKYRRKKTRKRLKKIGKVLKWI"
  Measured number: -0.30
- Molecule: "GN37: Native lysin, WP_014102102.1/VanY, SEQ ID NO: 12; first disclosed in WO/2017/049233 (protein, listed as Micavibrio aeruginosavorus) MTYTLSKRSLDNLKGVHPDLVAVVHRAIQLTPVDFAVIEGLRSVSRQKELVAAGASKTMNSRHLTGHAVDLAAYVNGIRWDWPLYDAIAVAVKAAAKELGVAIVWGGDWTTFKDGPHFELDRSKYR"
  Measured number: 1.51
- Molecule: "GN147: Modified GN3, amino acid substitutions (R101D, R117H), SEQ ID NO: 5 (protein) MRTSQRGLSLIKSFEGLRLQAYQDSVGVWTIGYGTTRGVKAGMKISKDQAERMLLNDVQRFEPEVERLIKVPLNQDQWDALMSFTYNLGAANLESSTLRDLLNAGNYAAAAEQFPHWNKAGGQVLAGLTRRRAAERELFLGAA"
  Measured number: 0.60
- Molecule: "GN146: Modified GN4, amino acid substitutions (K99D, R115H), SEQ ID NO: 4 (protein) MRTSQRGIDLIKSFEGLRLSAYQDSVGVWTIGYGTTRGVTRYMTITVEQAERMLSNDIQRFEPELDRLAKVPLNQNQWDALMSFVYNLGAANLASSTLLDLLNKGDYQGAADQFPHWVNAGGKRLDGLVKRRAAERALFLEPLS"
  Measured number: 0.30
